- Tested on: PC-3 prostate
- ASSAY_NOTES: NCI tumour cell line growth inhibition, 48 h
QUANTITY_NAME: TGI

Cc1sc2nc3n(c(=O)c2c1C)N=CN(c1ccccc1)C3	> 100 µM

Entry CC(=O)c1ccc(Nc2cc(-c3ccccc3)nc3c(O)cccc23)cc1 , TGI reported as > 100 µM

Entry O=C(Cc1nc2ccc(C(=O)c3ccccc3)cc2[nH]c1=O)C(=O)Nc1ccc(Br)cc1 , TGI reported as > 100 µM

Entry O=C(c1cccs1)c1c(C(F)(F)F)n([O-])c2ccccc2[n+]1=O , TGI reported as 2.24 µM

---

- System: SK-MEL-5 melanoma
- ASSAY_NOTES: NCI tumour cell line growth inhibition, 48 h
QUANTITY_NAME: TGI (µM)
The response must be a number in µM with no trailing unit.

Entry Cc1cc(=O)cc2sc3c(C)cccc3nc1-2 , TGI reported as 31.8

Entry O=C(NS(=O)(=O)Nc1ccc(Cl)cc1)OCc1ccc(Cl)cc1Cl , TGI reported as 39.1

Entry N#Cc1c(NC(=O)c2cccc(C(F)(F)F)c2)sc2c1CCC(=O)C2 , TGI reported as 2.65

---

Listed next: entries and their corresponding TGI.
- System: HT29 colon
- ASSAY_NOTES: NCI tumour cell line growth inhibition, 48 h

Some solved entries appear below for comparison.
Brc1cccc(-c2cc(-c3ccc4c(c3)OCCO4)[nH]n2)c1	27.4 µM
COc1ccc(C2C(Cl)C(=O)N2NC(=O)c2ccc(NC(C)=O)cc2)cc1 (stereo not given)	> 100 µM
COC(=O)C(C#N)=C1c2ccccc2Oc2ccccc21	> 100 µM
CCOP(=O)(OCC)[C@H](O)c1ccsc1	> 100 µM
COc1cc(C(=O)NC2c3ccccc3-c3ccccc32)c(N)cc1OCc1ccccc1	> 100 µM

Now take the following compound into account.
Entry Cc1ccccc1C(C#N)C(=O)C(=O)Nc1nc([N+](=O)[O-])cs1 (stereo not given) , TGI reported as > 100 µM

---

- Tested on: HOP-62 NSCLC
- ASSAY_NOTES: NCI tumour cell line growth inhibition, 48 h; in the data active = GI50 below about 0.43 µM; inactive = the rest
// allowed return values: Yes for active, No for inactive

These solved cases illustrate the format of a correct answer.
COc1cc(/C=C\[N+](=O)[O-])ccc1O	No
COC1(C(=O)N2Cc3nc(Cl)nc(N[C@H](C)c4cc(N)cc(C(F)(F)F)c4)c3C2)CCOCC1	No

In this assay, the call recorded for CN1CCN(Cc2ccc(C(=O)Nc3cncc(C#Cc4cnc(N)c5ccccc45)c3)cc2C(F)(F)F)CC1 was what?
No

In this assay, the call recorded for Cc1ccn2c3c(c(C(=O)O)c2c1)C(=O)c1ccccc1C3=O was what?
No

In this assay, the call recorded for O=C(c1cccs1)c1c(C(F)(F)F)n([O-])c2ccccc2[n+]1=O was what?
Yes

In this assay, the call recorded for C[C@@H]1CC[C@@H]2[C@@H]1[C@H](OC(=O)/C=C/c1ccccc1)[C@]1(c3ccccc3)C[C@@H](OC(=O)CO)[C@@]2(C)O1 was what?
No

In this assay, the call recorded for Clc1ccccc1C(c1ccccc1)(c1ccccc1)n1ccnc1 was what?
No

In this assay, the call recorded for C=C1C(O)C2CCC(C)(C)C(=O)C2=C(CC(C)C)C12CC2 (stereo not given) was what?
No

In this assay, the call recorded for COc1ccc(/C=C/C=C(/C#N)C(N)=S)cc1 was what?
No

In this assay, the call recorded for O=C(CCN1CCN(c2cnc3ccccc3n2)CC1)c1csc2ccccc12 was what?
No

---

- Tested on: SR leukemia
- ASSAY_NOTES: NCI tumour cell line growth inhibition, 48 h
Listed next: entries and their corresponding TGI.

CSc1nc(SC)c2c(CN=[N+]=[N-])c(Br)n(Cc3ccccc3)c2n1	> 100 µM
Cc1cc(-c2nc3ccccc3s2)ccc1NS(=O)(=O)O	> 100 µM
O=C1NC(c2ccc(O)cc2)C2CCC1C2 (stereo unspecified)	> 100 µM
CNC(=O)c1ccccc1CC1(O)c2ccccc2Oc2ccccc21	86.4 µM
C=CC(=O)N[C@H]1C=C(C)c2c(-c3cnc4ccccc4c3)c3c(N)ncnc3n2C1	> 100 µM

Now take the following compound into account.
Entry CCCCCCCCCCCCCCCC(=O)NCC(COP(=O)([O-])OCC[N+](C)(C)C)OCC (stereo unspecified) , TGI reported as 18.6 µM

---

- System: OVCAR-3 ovarian
- ASSAY_NOTES: NCI tumour cell line growth inhibition, 48 h
Would you please tag the item T when its TGI is 20 µM or above, and F when it is below?

These solved cases illustrate the format of a correct answer.
COC1(C(=O)N2Cc3nc(Cl)nc(N[C@H](C)c4cc(N)cc(C(F)(F)F)c4)c3C2)CCOCC1	T
COc1ccc(Nc2c(C#N)c3n(c4ccccc24)c2ccccc2[n+]3C)cc1OC	F

# bool: TGI of Cc1cc2nc3c4cc(Cl)ccc4n(CCN(C)C)c3nc2cc1C >= 20 µM
F

# bool: TGI of COc1ccc(N2C(=O)C3c4[nH]c5ccc([N+](=O)[O-])cc5c4C4CCC(C(C)(C)C)CC4C3C2=O)cc1 (centres undefined) >= 20 µM
T

# bool: TGI of COc1c(C2CC(=O)Nc3c2cnn3Cc2ccco2)cc2c(c1OC)OCO2 (centres undefined) >= 20 µM
F

# bool: TGI of CCn1cc(C(c2ccc(Cl)cc2)n2ccnc2)c2cc(Br)ccc21 (centres undefined) >= 20 µM
T

# bool: TGI of [N-]=[N+]=Nc1c(Cl)c(=O)n(-c2ccccc2)c2ccccc12 >= 20 µM
T

# bool: TGI of CN1CCN(Cc2ccc(C(=O)Nc3cncc(C#Cc4cnc(N)c5ccccc45)c3)cc2C(F)(F)F)CC1 >= 20 µM
F

# bool: TGI of Cc1cc(=O)cc2sc3c(C)cccc3nc1-2 >= 20 µM
T

---

- System: MOLT-4 leukemia
- ASSAY_NOTES: NCI tumour cell line growth inhibition, 48 h
Listed next: entries and their corresponding TGI.

COC(=O)c1cc(CC(C)C)c2c(c1)[nH]c1ccccc12	> 100 µM
c1ccc([P+](CCNCCNCC[P+](c2ccccc2)(c2ccccc2)c2ccccc2)(c2ccccc2)c2ccccc2)cc1	> 100 µM
COc1ccc2c(c1)c1c(n2CCN2CCOCC2)-c2ccccc2CC1	48 µM
O=[N+]([O-])[C@@H]1C2C=CC(C2)[C@H]1Cl (stereo not given in full)	> 100 µM
CC(=O)C(CN1CCCCC1)C(c1ccccc1)c1c(O)c2ccccc2oc1=O (stereo not given)	> 100 µM

Entry COC1(C)CC2N(C(=O)c3ccccc3)N=C(c3ccccc3)CC2(C)O1 (stereo not given) , TGI reported as > 100 µM

Entry COc1cc(-n2cc(-c3ccc(Cl)c(Cl)c3)nc2SCc2ccccc2)cc(OC)c1OC , TGI reported as > 100 µM

Entry Cc1cc2nc3c4cc(Cl)ccc4n(CCN(C)C)c3nc2cc1C , TGI reported as 3.44 µM

Entry N#Cc1c(N)[nH]c(=S)c(C#N)c1-c1cccc(Cl)c1 , TGI reported as 57.8 µM

Entry C=CC(=O)Nc1cccc(-c2nc(SC)nc(Nc3ccccc3OC)c2C#N)c1 , TGI reported as 83.5 µM

---

- Test system: OVCAR-4 ovarian
- ASSAY_NOTES: NCI tumour cell line growth inhibition, 48 h
Listed next: entries and their corresponding TGI.

Some solved entries appear below for comparison.
COc1ccc(N2C(=O)C3c4[nH]c5ccc([N+](=O)[O-])cc5c4C4CCC(C(C)(C)C)CC4C3C2=O)cc1 (stereo unspecified)	> 100 µM
O=c1[nH]cnc2c(C3OC(CO)C(O)C3O)c[nH]c12 (stereo unspecified)	> 100 µM
O=C(Cc1nc2ccc(C(=O)c3ccccc3)cc2[nH]c1=O)C(=O)Nc1ccc(Br)cc1	> 100 µM
N#Cc1c(NC(=S)NC(=O)c2ccccc2)nc2c(c1-c1ccccc1)CCC2	> 100 µM
CC(=O)OCC1OC(O[C@@H]2C[C@H]3C(C)(C)[C@H](OC(C)=O)CC[C@]3(C)[C@H]3CCC4=C([C@@H](C)C[C@@H](O)[C@H](O)C(C)(C)O)CC[C@@]4(C)[C@@]32C)C(O)C(O)C1O (stereo partly specified)	31.1 µM

Entry CNC(=O)c1ccccc1CC1(O)c2ccccc2Oc2ccccc21 , TGI reported as > 100 µM

Entry CC(C)(C)c1cc(O)c(O)c(C(C)(C)C)c1 , TGI reported as 5.84 µM

Entry C[C@@H]1CC[C@@H]2[C@@H]1[C@H](OC(=O)/C=C/c1ccccc1)[C@]1(c3ccccc3)C[C@@H](OC(=O)CO)[C@@]2(C)O1 , TGI reported as 27.3 µM

Entry CSC1=NC=CCN1C , TGI reported as > 100 µM

Entry O=C1/C(=C/c2ccc(F)cc2)CCOc2ccc([N+](=O)[O-])cc21 , TGI reported as 36.5 µM

Entry O=c1c2ccccc2[nH]c(=S)n1-c1ccc(N=Nc2cccc3c(O)cccc23)cc1 , TGI reported as > 100 µM

Entry C/C(=N\NC(=S)NC(C)C)c1nc2ncccc2[nH]1 , TGI reported as > 100 µM

Entry O=c1oc2ccccc2c(O)c1C(c1cc(OCc2ccccc2)cc(OCc2ccccc2)c1)c1c(O)c2ccccc2oc1=O , TGI reported as 68.4 µM
